Where these numbers come from: paper PMC12362618

- System: OSM-induced pSTAT3 in T47D human breast cancer cells
- Protocol: pSTAT3 ELISA in T47D cells treated with OSM ± SMI
- Assay type: cell-based
- Conditions: T47D; SMI 10 μM + OSM 10 ng/mL, 30 min; ELISA; relative to +OSM, no-treatment blank subtracted
So basically: Relative pSTAT3 Levels (Table 2, SMI-10B analogs) at 40% or higher? That is 1. Lower than 40%? That is 0.

Below are worked cases with known answers.
>  <Compound>
O=C(O)CCc1cc(-c2cncnc2)c(-c2ccc3c(c2)OCO3)o1

>  <Answer Label>
1

$$$$
>  <Compound>
O=C(O)/C=C/c1cc(-c2ccc3c(c2)OCO3)co1

>  <Answer Label>
0

$$$$
>  <Compound>
COc1cc(-c2cc(/C=C/C(=O)O)oc2-c2ccc(O)c(OC)c2)ccc1O

>  <Answer Label>
1

$$$$
>  <Compound>
O=C(O)CCc1cc(-c2ccc3c(c2)OCO3)c(-c2ccc3c(c2)OCO3)o1

>  <Answer Label>
1

$$$$
>  <Compound>
O=C(O)CCc1cc(-c2ccc(F)c(F)c2)c(-c2ccc3c(c2)OCO3)o1

>  <Answer Label>
1

$$$$
>  <Compound>
O=C(O)/C=C/c1cc(-c2ccc3c(c2)OCO3)c(-c2ccc3c(c2)OCO3)[nH]1

>  <Answer Label>
0

$$$$

**Q:** Does the reported Relative pSTAT3 Levels (Table 2, SMI-10B analogs) for `COc1ccc(-c2cc(CCC(=O)O)oc2-c2ccc3c(c2)OCO3)cc1` fall at or above the 40% mark?
**A:** 1

**Q:** Does the reported Relative pSTAT3 Levels (Table 2, SMI-10B analogs) for `O=C(O)/C=C/c1cc(-c2ccc3c(c2)OCCO3)c(-c2ccc3c(c2)OCCO3)o1` fall at or above the 40% mark?
**A:** 1

**Q:** Does the reported Relative pSTAT3 Levels (Table 2, SMI-10B analogs) for `O=C(O)/C=C/c1ccc(-c2ccc3c(c2)OCO3)o1` fall at or above the 40% mark?
**A:** 1

**Q:** Does the reported Relative pSTAT3 Levels (Table 2, SMI-10B analogs) for `Cn1c(/C=C/C(=O)O)cc(-c2ccc3c(c2)OCO3)c1-c1ccc2c(c1)OCO2` fall at or above the 40% mark?
**A:** 0

**Q:** Does the reported Relative pSTAT3 Levels (Table 2, SMI-10B analogs) for `O=C(O)/C=C/c1cc(-c2ccc3c(c2)OCO3)c(-c2ccccc2)o1` fall at or above the 40% mark?
**A:** 0
